# system_name: human EDG-2 (Homo sapiens)
# Sequence (Q92633 whole entry): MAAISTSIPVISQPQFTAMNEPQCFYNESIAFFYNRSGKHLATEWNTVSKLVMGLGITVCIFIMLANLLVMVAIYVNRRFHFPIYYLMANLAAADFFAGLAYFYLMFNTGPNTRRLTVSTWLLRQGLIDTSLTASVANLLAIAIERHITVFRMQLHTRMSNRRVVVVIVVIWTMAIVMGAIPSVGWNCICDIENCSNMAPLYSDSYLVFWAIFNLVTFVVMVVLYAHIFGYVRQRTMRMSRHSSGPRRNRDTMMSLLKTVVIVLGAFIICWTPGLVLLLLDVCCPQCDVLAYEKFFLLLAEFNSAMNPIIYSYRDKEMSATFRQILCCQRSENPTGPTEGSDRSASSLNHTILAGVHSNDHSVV
# test_name: Evaluation of EDG-2 antagonistic activity by monitoring the change of intracellular calcium ion concentration
# measurement_setup: CHO cells overexpressing human EDG-2; inhibition of intracellular calcium increase by LPA (100 nM); Fura2
# pIC50 annotations
Reminder that pIC50 means the negative base-10 logarithm of the concentration expressed in mol/L.

COc1cc(C(=O)N(CCCc2ccccc2)Cc2ccc(-c3ccccc3CC(=O)O)cc2)cc(OC)c1OC : 6.72

# input for lookup
[Q] Which pIC50 reading was recorded for the molecule COC(=O)CCSCc1ccc(-c2onc(C)c2NC(=O)OC(C)c2ccccc2Cl)cc1 (centres unmarked) [compound (b), reference compound] ?
[A] 5.82

Taken from patent US7300917B2.
